Cited source for all entries: ChEMBL document CHEMBL1145084

Biological target: Coagulation factor VII (Homo sapiens, UniProt P08709)
Sequence (P08709 61-212 limits assumed): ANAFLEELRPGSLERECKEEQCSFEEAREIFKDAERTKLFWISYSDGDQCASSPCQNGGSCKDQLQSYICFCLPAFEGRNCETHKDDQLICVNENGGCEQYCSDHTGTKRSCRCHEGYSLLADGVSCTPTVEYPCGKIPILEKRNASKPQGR
Sequence (P08709 213-466 limits assumed): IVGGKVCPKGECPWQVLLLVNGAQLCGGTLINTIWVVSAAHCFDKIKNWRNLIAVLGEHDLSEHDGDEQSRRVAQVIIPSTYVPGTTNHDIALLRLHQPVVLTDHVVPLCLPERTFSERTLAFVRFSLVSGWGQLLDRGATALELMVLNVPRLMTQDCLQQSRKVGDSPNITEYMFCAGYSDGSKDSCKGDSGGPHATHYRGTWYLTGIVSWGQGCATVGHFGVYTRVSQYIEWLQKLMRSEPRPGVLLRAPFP
pIC50: −log10 of the molar value.
Please note: yes applies when pIC50 is 6 or greater, and no applies otherwise.

N=C(N)NCCC[C@H](NC(=O)[C@H](Cc1ccc(F)cc1)NC(=O)[C@@H](Cc1ccccc1)NS(=O)(=O)Cc1ccccc1)C(=O)c1nccs1; yes

Exercise: Exam item: decide whether the reported pIC50 for CN(C)CCCC[C@H](NC(=O)[C@@H](Cc1ccccc1)NS(=O)(=O)Cc1ccccc1)C(=O)N[C@@H](CCCNC(=N)N)C(=O)c1nccs1 is at least 6.
Key: no

Exercise: Exam item: decide whether the reported pIC50 for N=C(N)NCCC[C@H](NC(=O)[C@H](Cc1ccc(-c2ccccc2)cc1)NC(=O)[C@@H](Cc1ccccc1)NS(=O)(=O)Cc1ccccc1)C(=O)c1nccs1 is at least 6.
Key: no

Exercise: Exam item: decide whether the reported pIC50 for N=C(N)NCCC[C@H](NC(=O)[C@H](Cc1cccc2ccccc12)NC(=O)[C@@H](Cc1ccccc1)NS(=O)(=O)Cc1ccccc1)C(=O)c1nccs1 is at least 6.
Key: no
